target: DRB1*1302 (Homo sapiens, UniProt P01903+P01911, A100E/A169T/K41T/L162R/M171V/P40S/Q125H/Q178H/Q39Y/Q99D/R42S/S66N/T262R/V115G/W38E/Y61H)
Sequence (P01903 26-254 limits assumed, other chains not shown): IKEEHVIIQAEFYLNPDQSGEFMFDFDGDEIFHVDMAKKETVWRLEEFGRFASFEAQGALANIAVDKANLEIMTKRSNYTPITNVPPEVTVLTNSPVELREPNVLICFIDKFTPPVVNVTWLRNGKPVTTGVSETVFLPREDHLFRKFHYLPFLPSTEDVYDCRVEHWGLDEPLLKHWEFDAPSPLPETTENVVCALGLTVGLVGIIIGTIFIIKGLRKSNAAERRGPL
protocol.summary: biochemical
Assay type: binding
measurement.parameters: read-out: IC50 nM to purified HLA DRB1*1302
Reported IC50 values follow for various compounds
property.measured: IC50 (nM)

[
  {
    "compound": "CSCC[C@H](NC(=O)[C@H](CCCNC(=N)N)NC(=O)[C@H](CCSC)NC(=O)[C@@H](N)C(C)C)C(=O)NCC(=O)N[C@@H](CC(=O)O)C(=O)N[C@@H](CC(C)C)C(=O)N[C@@H](Cc1c[nH]cn1)C(=O)N[C@@H](CO)C(=O)N[C@@H](CC(C)C)C(=O)N[C@@H](CCC(N)=O)C(=O)N[C@@H](CC(N)=O)C(=O)N[C@@H](CCCNC(=N)N)C(=O)N[C@@H](CC(N)=O)C(=O)NCC(=O)O [Flu.NS2.125]",
    "property.measured": "IC50",
    "numeric.result": 1370
  },
  {
    "compound": "CC[C@H](C)[C@H](NC(=O)CNC(=O)[C@@H](N)CCCNC(=N)N)C(=O)N[C@@H](CC(C)C)C(=O)N[C@@H](CCC(=O)O)C(=O)N[C@@H](CC(=O)O)C(=O)N[C@@H](CCC(=O)O)C(=O)N[C@@H](CCC(N)=O)C(=O)N[C@@H](CCSC)C(=O)N[C@@H](Cc1ccc(O)cc1)C(=O)N[C@@H](CCC(N)=O)C(=O)N[C@@H](CCCCN)C(=O)N[C@@H](CS)C(=O)N[C@@H](CS)C(=O)N[C@@H](CC(N)=O)C(=O)O [Flu.PB1.683]",
    "property.measured": "IC50",
    "numeric.result": 18000
  },
  {
    "compound": "CC[C@H](C)[C@H](NC(=O)[C@H](CO)NC(=O)[C@@H](NC(=O)[C@@H](NC(=O)[C@@H](NC(=O)[C@@H](N)CCCNC(=N)N)C(C)C)C(C)C)C(C)C)C(=O)N[C@@H](CC(=O)O)C(=O)N[C@@H](CCCNC(=N)N)C(=O)N[C@@H](Cc1ccccc1)C(=O)N[C@@H](CC(C)C)C(=O)N[C@@H](CCCNC(=N)N)C(=O)N[C@H](C(=O)N[C@@H](CCCNC(=N)N)C(=O)N[C@@H](CC(=O)O)C(=O)N[C@@H](CCC(N)=O)C(=O)O)C(C)C [Flu.PB2.496]",
    "property.measured": "IC50",
    "numeric.result": 8.1
  },
  {
    "compound": "CC[C@H](C)[C@H](NC(=O)[C@H](CCCNC(=N)N)NC(=O)[C@H](CCC(=O)O)NC(=O)[C@@H](N)C(C)C)C(=O)N[C@@H](CC(C)C)C(=O)N[C@@H](CCCCN)C(=O)N[C@@H](CCC(=O)O)C(=O)N[C@@H](CCC(=O)O)C(=O)N[C@@H](CO)C(=O)N[C@@H](CC(=O)O)C(=O)N[C@@H](CCC(=O)O)C(=O)N[C@@H](C)C(=O)N[C@@H](CC(C)C)C(=O)N[C@@H](CCCCN)C(=O)N[C@@H](CCSC)C(=O)O [Flu.NS1.68]",
    "property.measured": "IC50",
    "numeric.result": 5060
  },
  {
    "compound": "CC(C)C[C@H](NC(=O)[C@H](C)NC(=O)CNC(=O)[C@H](CCC(N)=O)NC(=O)[C@@H](NC(=O)[C@H](CC(C)C)NC(=O)[C@H](Cc1ccccc1)NC(=O)[C@H](Cc1ccccc1)NC(=O)[C@@H](NC(=O)[C@@H](N)CCCNC(=N)N)[C@@H](C)O)[C@@H](C)O)C(=O)N[C@@H](CC(C)C)C(=O)N[C@@H](CC(N)=O)C(=O)N[C@@H](CC(=O)O)C(=O)N[C@@H](CCCCN)C(=O)N[C@@H](Cc1c[nH]cn1)C(=O)N[C@@H](CO)C(=O)O [Flu.NA.110]",
    "property.measured": "IC50",
    "numeric.result": 3210
  }
]
